Target: Muscarinic acetylcholine receptor M4 (Rattus norvegicus) (UniProt P08485)
Sequence (P08485 whole entry, looked up): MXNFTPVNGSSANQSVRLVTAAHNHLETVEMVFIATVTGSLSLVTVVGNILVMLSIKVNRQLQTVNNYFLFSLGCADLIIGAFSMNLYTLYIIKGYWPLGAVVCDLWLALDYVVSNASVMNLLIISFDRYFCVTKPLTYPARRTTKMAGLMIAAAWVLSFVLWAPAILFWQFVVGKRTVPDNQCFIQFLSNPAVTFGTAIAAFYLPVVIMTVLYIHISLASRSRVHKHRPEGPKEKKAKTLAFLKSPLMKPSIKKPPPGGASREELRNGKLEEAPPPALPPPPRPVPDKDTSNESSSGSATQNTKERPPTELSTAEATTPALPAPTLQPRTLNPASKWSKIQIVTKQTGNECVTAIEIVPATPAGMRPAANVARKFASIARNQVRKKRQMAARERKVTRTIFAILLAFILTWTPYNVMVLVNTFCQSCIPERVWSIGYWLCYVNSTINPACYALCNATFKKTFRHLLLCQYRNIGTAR
Assay: agonist activity at rat M4 receptor, confirmation, counter-screen for M1 allosteric modulator project, cell-based, agonist mode (AID 1741)
Conditions: CHO M4/Gqi5 cells, Fluo-4 calcium fluorescence, at 10 µM, actives lie on both sides
In all, about 1,700 compounds went through this assay and about 150 (8.8%) were called active. Not shown: some 19% with an inconclusive outcome. Only a sample is shown.
quantity_kind: fluorescence change (max-min)
One number for each entry.

| compound | experimental_target | fluorescence change (max-min) |
| --- | --- | --- |
| O=C(Cn1cc(C(=O)c2cccs2)c2ccccc21)NCc1cccs1 | Muscarinic acetylcholine receptor M4 (Rattus norvegicus) (UniProt P08485) | -25 |
| O=C(c1ccccc1)c1ccc(OC(=O)N2CCCC2)cc1 | Muscarinic acetylcholine receptor M4 (Rattus norvegicus) (UniProt P08485) | -25.9 |
| CC1CCCC(C)N1C(=O)CN1CCN(c2nc(-c3ccc(F)cc3)cs2)CC1 (stereo unspecified) | Muscarinic acetylcholine receptor M4 (Rattus norvegicus) (UniProt P08485) | -9.73 |
| CCOC(=O)c1cc2n(c1N)-c1ccccc1C2=O | Muscarinic acetylcholine receptor M4 (Rattus norvegicus) (UniProt P08485) | 2020 |
| C(=N\n1cnnc1)/c1cccnc1 | Muscarinic acetylcholine receptor M4 (Rattus norvegicus) (UniProt P08485) | -25.3 |

Lab note: each compound below needs its fluorescence change (max-min) filled in.
1. O=C(NCCc1ccc2c(c1)OCCO2)c1cc2ccccc2o1
2. COc1cc(C(=O)Nc2oc(-c3ccccc3)c(-c3ccccc3)c2C#N)cc(OC)c1OC
3. Cc1cc(NC(=O)COc2ccc(Cl)cc2Cl)n(CCC#N)n1
4. CC(C)OCCCNc1ncnc2c1[nH]c1ccc(F)cc12
5. CCOc1ccc(NC(=O)N2CC=C(n3c(=O)[nH]c4ccccc43)CC2)cc1
6. Cn1c(C(=O)NCCc2ccsc2)cc2c(=O)n(C)c3ccccc3c21

[-9.99, -47.4, -13.8, -4.51, -26.4, -42.5]

====

Molecular target: Muscarinic acetylcholine receptor M4 (Rattus norvegicus) (UniProt P08485)
Assay: agonist activity at rat M4 receptor, confirmation, counter-screen for M1 allosteric modulator project, cell-based, agonist mode (AID 1741)
Conditions: CHO M4/Gqi5 cells, Fluo-4 calcium fluorescence, at 10 µM, actives lie on both sides
The campaign covered roughly 1,700 compounds. About 150 (8.8%) were called active. Inconclusive results (about 19%) are left out.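 How the source made its calls: active means fluorescence change differing from the plate's solvent-only control wells at 99.7% confidence in both duplicates, whether higher or lower; inconclusive means differs from solvent controls in only one of two duplicates; inactive means the rest.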 Not all results are given here.
Valid outcomes are listed here; reply with one: 1 for active, 0 for inactive

Example entries begin here.
| compound | experimental_target | class |
| --- | --- | --- |
| c1ccc2c(c1)OCC(CNc1ncnc3nc[nH]c13)O2 (stereo not drawn) | Muscarinic acetylcholine receptor M4 (Rattus norvegicus) (UniProt P08485) | 1 |
| COc1ccccc1NC1=NC(c2ccc(Cl)cc2)N=C(N)N1 (stereo not drawn) | Muscarinic acetylcholine receptor M4 (Rattus norvegicus) (UniProt P08485) | 0 |
| CC(=O)OC(C)C[N+](C)(C)C (stereo not drawn) | Muscarinic acetylcholine receptor M4 (Rattus norvegicus) (UniProt P08485) | 1 |
| O=C(CSc1nnc(-c2ccco2)n1Cc1ccccc1)NC(=O)NCc1ccco1 | Muscarinic acetylcholine receptor M4 (Rattus norvegicus) (UniProt P08485) | 0 |

Hey, what did the test say about Cc1ccc2oc(=O)c3cnn(CC(=O)N4CCN(c5ccccn5)CC4)c3c2c1 ?
0

Hey, what did the test say about CC(C[N+](C)(C)C)OC(N)=O (stereo not drawn) ?
0

Hey, what did the test say about COc1cccc2c(C)c(C(=O)O)[nH]c12 ?
0

Hey, what did the test say about FC(F)(F)COc1nc(N2CCCCC2)nc(N2CCNCC2)n1 ?
0

Numbers sourced from PubChem BioAssay AID1741.
